Documented melting point across a set of compounds

[
  {
    "compound": "CN(Cc1ccccc1)Cc1c(-c2ccc(N)cc2)sc2c1c(=O)n(-c1ccccc1)c(=O)n2Cc1c(F)cccc1F",
    "melting point": "205 to 207 °C"
  },
  {
    "compound": "CCCOc1ccc(C(=O)O)cc1-c1ccc(C#N)c(=O)[nH]1",
    "melting point": "277 to 279 °C"
  },
  {
    "compound": "CC(C)(C)OC(=O)Cn1ccc2cc(NC(=O)CC34CC5CC(CC(C5)C3)C4)ccc21",
    "melting point": "199 °C"
  },
  {
    "compound": "CCOCCOC(=O)C(=O)Nc1nc(-c2ccc(OC)cc2)cs1",
    "melting point": "130 to 133 °C"
  },
  {
    "compound": "CC1(C)Cc2nc(C3CCCC3)c(C(=O)c3ccc(C(F)(F)F)cc3)c(-c3ccc(F)c(F)c3)c2C(O)C1 (stereo not given)",
    "melting point": "166 to 168 °C"
  }
]

###

Consider the following molecules and their measured melting point readings.

[
  {
    "molecule": "CCOC(=O)c1ccc(OCCC2CCN(c3ccc(C)nn3)CC2)cc1",
    "unit": "°C",
    "melting point": 130
  },
  {
    "molecule": "CCCN1CCN(c2ncc3c(=O)c(C(=O)O)cn(CC)c3n2)CC1",
    "unit": "°C",
    "melting point": 149
  },
  {
    "molecule": "CC(C)C1COC(=O)N1C(=O)CCCCOCc1ccccc1 (stereo not given)",
    "unit": "°C",
    "melting point": 133
  },
  {
    "molecule": "FC(F)(F)COc1cc(-c2cc(C(F)(F)F)n3ncc(-c4ccncc4)c3n2)ccc1C(F)(F)F",
    "unit": "°C",
    "melting point": 251
  }
]

###

Recorded melting point, one value per entry.
observed property: melting point

[
  {
    "cpd smiles": "Cc1cc(C)c(Nc2nc(C)ncc2S(=O)(=O)c2ccc(-c3ccncc3)cc2)c(C)c1",
    "observed property": "melting point",
    "observed": "232 to 234 °C"
  },
  {
    "cpd smiles": "COC(=O)NN=C(C)c1c[nH]c(-c2ccccc2)n1",
    "observed property": "melting point",
    "observed": "226 to 227 °C"
  },
  {
    "cpd smiles": "CCOc1ccc(Cc2cnc(N)nc2N)cc1OC",
    "observed property": "melting point",
    "observed": "195 to 196 °C"
  },
  {
    "cpd smiles": "O=S(=O)(O)c1cccc2c1ccc1nc(O)c(O)nc12",
    "observed property": "melting point",
    "observed": "> 300 °C"
  },
  {
    "cpd smiles": "COC(=O)c1cccc(CN2C(=O)N(c3ccccc3Br)Cc3cnc(Nc4ccccc4)nc32)c1",
    "observed property": "melting point",
    "observed": "79 to 82 °C"
  },
  {
    "cpd smiles": "CC(=O)CC(=O)C=Cc1ccc(O)cc1Cl",
    "observed property": "melting point",
    "observed": "125 to 129 °C"
  },
  {
    "cpd smiles": "C=CCc1c(C)ccc(N2C(=O)c3ccccc3C2=O)c1O",
    "observed property": "melting point",
    "observed": "178 to 180 °C"
  },
  {
    "cpd smiles": "Cc1oc(-c2ccccc2)nc1C(N)=O",
    "observed property": "melting point",
    "observed": "154 to 157 °C"
  },
  {
    "cpd smiles": "OCC=C(c1ccccc1)c1ccccc1",
    "observed property": "melting point",
    "observed": "112 to 115 °C"
  },
  {
    "cpd smiles": "c1cc(CN2CCCCC2)cc(OCCNc2nc3ccccc3s2)c1",
    "observed property": "melting point",
    "observed": "141 to 142 °C"
  }
]

# credit: a melting point compilation (Tetko et al.; mined from patent text by program, amines drawn as free bases though some values may be those of a salt)
